assay: activity coefficient (dimensionless); of the first substance listed, at infinite dilution; xn = mol fraction of the nth substance listed; conditions: 373.15 K; 100 kPa; Liquid; Chromatography; x1 = 0
Threshold rule: activity coefficient greater than or equal to 2 is class 1; below that, class 0.

>  <Molecule>
C1COCCO1 [1,4-dioxane] + CCCC[N+]1(C)CCCC1.N#CN=C=[N-]

>  <Qualitative Label>
class 0

$$$$
>  <Molecule>
C=Cc1ccccc1 [styrene] + CCCC[N+]1(C)CCCC1.N#CN=C=[N-]

>  <Qualitative Label>
class 0

$$$$
>  <Molecule>
CCC=O [propanal] + CCCC[N+]1(C)CCCC1.N#CN=C=[N-]

>  <Qualitative Label>
class 0

$$$$
>  <Molecule>
C=CCCCCCC [oct-1-ene] + CCCC[N+]1(C)CCCC1.N#CN=C=[N-]

>  <Qualitative Label>
class 1

$$$$

====

assay: activity coefficient (dimensionless); of the first substance listed, at infinite dilution; xn = mol fraction of the nth substance listed; conditions: 313.15 K; 100 kPa; Liquid; Chromatography; x1 = 0
Value Type: activity coefficient

>  <Compound>
CCCOCCC [dipropyl ether] + CCCC[N+]1(C)CCCC1.N#CN=C=[N-]

>  <Recorded Measurement>
17.9

$$$$
>  <Compound>
CC(C)CO [2-methyl-1-propanol] + CCCC[N+]1(C)CCCC1.N#CN=C=[N-]

>  <Recorded Measurement>
0.872

$$$$
>  <Compound>
C=Cc1ccccc1 [styrene] + CCCC[N+]1(C)CCCC1.N#CN=C=[N-]

>  <Recorded Measurement>
1.49

$$$$
>  <Compound>
C#CCCCCC [1-heptyne] + CCCC[N+]1(C)CCCC1.N#CN=C=[N-]

>  <Recorded Measurement>
5.76

$$$$
>  <Compound>
CCC(C)(C)OC [2-methoxy-2-methylbutane] + CCCC[N+]1(C)CCCC1.N#CN=C=[N-]

>  <Recorded Measurement>
9.56

$$$$
>  <Compound>
Cc1ccccc1 [toluene] + CCCC[N+]1(C)CCCC1.N#CN=C=[N-]

>  <Recorded Measurement>
2.07

$$$$
>  <Compound>
c1ccncc1 [pyridine] + CCCC[N+]1(C)CCCC1.N#CN=C=[N-]

>  <Recorded Measurement>
1.02

$$$$
>  <Compound>
CO [methanol] + CCCC[N+]1(C)CCCC1.N#CN=C=[N-]

>  <Recorded Measurement>
0.336

$$$$
>  <Compound>
CCC(=O)OC [methyl propanoate] + CCCC[N+]1(C)CCCC1.N#CN=C=[N-]

>  <Recorded Measurement>
2.07

$$$$

====

test: activity coefficient (dimensionless); of the first substance listed, at infinite dilution; xn = mol fraction of the nth substance listed; details: 323.15 K; 100 kPa; Liquid; Chromatography; x1 = 0
Threshold rule: activity coefficient greater than or equal to 2 is Satisfied; below that, Not satisfied.

>  <Compound>
C=C(C)c1ccccc1 [(1-methylethenyl)benzene] + CCCC[N+]1(C)CCCC1.N#CN=C=[N-]

>  <Qualitative Label>
Satisfied

$$$$
>  <Compound>
C1CCOC1 [tetrahydrofuran] + CCCC[N+]1(C)CCCC1.N#CN=C=[N-]

>  <Qualitative Label>
Not satisfied

$$$$
>  <Compound>
Cc1ccccc1 [toluene] + CCCC[N+]1(C)CCCC1.N#CN=C=[N-]

>  <Qualitative Label>
Satisfied

$$$$
>  <Compound>
CC(C)OC(C)C [diisopropyl ether] + CCCC[N+]1(C)CCCC1.N#CN=C=[N-]

>  <Qualitative Label>
Satisfied

$$$$
>  <Compound>
Cc1cccc(C)c1 [1,3-dimethylbenzene] + CCCC[N+]1(C)CCCC1.N#CN=C=[N-]

>  <Qualitative Label>
Satisfied

$$$$
>  <Compound>
c1ccccc1 [benzene] + CCCC[N+]1(C)CCCC1.N#CN=C=[N-]

>  <Qualitative Label>
Not satisfied

$$$$
>  <Compound>
CCC(C)(C)OC [2-methoxy-2-methylbutane] + CCCC[N+]1(C)CCCC1.N#CN=C=[N-]

>  <Qualitative Label>
Satisfied

$$$$
>  <Compound>
CCCC=O [butanal] + CCCC[N+]1(C)CCCC1.N#CN=C=[N-]

>  <Qualitative Label>
Not satisfied

$$$$
>  <Compound>
C=Cc1ccccc1 [styrene] + CCCC[N+]1(C)CCCC1.N#CN=C=[N-]

>  <Qualitative Label>
Not satisfied

$$$$

====

// values below are reported activity coefficient
assay: activity coefficient (dimensionless); of the first substance listed, at infinite dilution; xn = mol fraction of the nth substance listed; settings: 313.15 K; 100 kPa; Liquid; Chromatography; x1 = 0

>  <Compound>
CCc1ccccc1 [ethylbenzene] + CCCC[N+]1(C)CCCC1.N#CN=C=[N-]

>  <activity coefficient>
3.32

$$$$
>  <Compound>
CC(C)=O [acetone] + CCCC[N+]1(C)CCCC1.N#CN=C=[N-]

>  <activity coefficient>
0.907

$$$$
>  <Compound>
C1COCCO1 [1,4-dioxane] + CCCC[N+]1(C)CCCC1.N#CN=C=[N-]

>  <activity coefficient>
0.909

$$$$
>  <Compound>
COC(C)(C)C [2-methoxy-2-methylpropane] + CCCC[N+]1(C)CCCC1.N#CN=C=[N-]

>  <activity coefficient>
6.25

$$$$
>  <Compound>
c1ccsc1 [thiophene] + CCCC[N+]1(C)CCCC1.N#CN=C=[N-]

>  <activity coefficient>
0.807

$$$$
>  <Compound>
CCC[N+](=O)[O-] [1-nitropropane] + CCCC[N+]1(C)CCCC1.N#CN=C=[N-]

>  <activity coefficient>
0.721

$$$$

====

test: activity coefficient (dimensionless); of the first substance listed, at infinite dilution; xn = mol fraction of the nth substance listed; conditions: 343.15 K; 100 kPa; Liquid; Chromatography; x1 = 0
// values below are reported activity coefficient
Value Type: activity coefficient

>  <Compound>
C1=CCCCC1 [cyclohexene] + CCCC[N+]1(C)CCCC1.N#CN=C=[N-]

>  <Recorded Measurement>
8.65

$$$$
>  <Compound>
CC(C)=O [acetone] + CCCC[N+]1(C)CCCC1.N#CN=C=[N-]

>  <Recorded Measurement>
0.978

$$$$
>  <Compound>
Cc1ccc(C)cc1 [1,4-dimethylbenzene] + CCCC[N+]1(C)CCCC1.N#CN=C=[N-]

>  <Recorded Measurement>
3.47

$$$$

====

assay: activity coefficient (dimensionless); of the first substance listed, at infinite dilution; xn = mol fraction of the nth substance listed; details: 363.15 K; 100 kPa; Liquid; Chromatography; x1 = 0
// values below are reported activity coefficient

>  <Molecule>
CCCOCCC [dipropyl ether] + CCCC[N+]1(C)CCCC1.N#CN=C=[N-]

>  <activity coefficient>
16.6

$$$$
>  <Molecule>
CCC=O [propanal] + CCCC[N+]1(C)CCCC1.N#CN=C=[N-]

>  <activity coefficient>
1.16

$$$$
>  <Molecule>
Cc1cccc(C)c1 [1,3-dimethylbenzene] + CCCC[N+]1(C)CCCC1.N#CN=C=[N-]

>  <activity coefficient>
3.74

$$$$

====

experiment: activity coefficient (dimensionless); of the first substance listed, at infinite dilution; xn = mol fraction of the nth substance listed; conditions: 323.15 K; 100 kPa; Liquid; Chromatography; x1 = 0
Just a reminder that ties go to 0: only activity coefficient strictly below 6 counts as 1.

>  <Compound>
CCO [ethanol] + CCCC[N+]1(C)CCCC1.N#CN=C=[N-]

>  <Qualitative Label>
1

$$$$
>  <Compound>
CCCC(=O)OC [methyl butanoate] + CCCC[N+]1(C)CCCC1.N#CN=C=[N-]

>  <Qualitative Label>
1

$$$$
>  <Compound>
C=CCCCCCC [oct-1-ene] + CCCC[N+]1(C)CCCC1.N#CN=C=[N-]

>  <Qualitative Label>
0

$$$$
>  <Compound>
CC(C)=O [acetone] + CCCC[N+]1(C)CCCC1.N#CN=C=[N-]

>  <Qualitative Label>
1

$$$$
>  <Compound>
CCCOCCC [dipropyl ether] + CCCC[N+]1(C)CCCC1.N#CN=C=[N-]

>  <Qualitative Label>
0

$$$$
>  <Compound>
CCC[N+](=O)[O-] [1-nitropropane] + CCCC[N+]1(C)CCCC1.N#CN=C=[N-]

>  <Qualitative Label>
1

$$$$
>  <Compound>
CCCCCCC [heptane] + CCCC[N+]1(C)CCCC1.N#CN=C=[N-]

>  <Qualitative Label>
0

$$$$
>  <Compound>
CCC=O [propanal] + CCCC[N+]1(C)CCCC1.N#CN=C=[N-]

>  <Qualitative Label>
1

$$$$
>  <Compound>
CCC(=O)CC [pentan-3-one] + CCCC[N+]1(C)CCCC1.N#CN=C=[N-]

>  <Qualitative Label>
1

$$$$
>  <Compound>
COC(C)(C)C [2-methoxy-2-methylpropane] + CCCC[N+]1(C)CCCC1.N#CN=C=[N-]

>  <Qualitative Label>
0

$$$$
>  <Compound>
CCOC(C)=O [ethyl acetate] + CCCC[N+]1(C)CCCC1.N#CN=C=[N-]

>  <Qualitative Label>
1

$$$$
>  <Compound>
CCOC(C)(C)C [2-ethoxy-2-methylpropane] + CCCC[N+]1(C)CCCC1.N#CN=C=[N-]

>  <Qualitative Label>
0

$$$$
>  <Compound>
CO [methanol] + CCCC[N+]1(C)CCCC1.N#CN=C=[N-]

>  <Qualitative Label>
1

$$$$
>  <Compound>
CCCCCCCC [octane] + CCCC[N+]1(C)CCCC1.N#CN=C=[N-]

>  <Qualitative Label>
0

$$$$
>  <Compound>
C#CCCCCCC [1-octyne] + CCCC[N+]1(C)CCCC1.N#CN=C=[N-]

>  <Qualitative Label>
0

$$$$
>  <Compound>
CCCCCCCCC [nonane] + CCCC[N+]1(C)CCCC1.N#CN=C=[N-]

>  <Qualitative Label>
0

$$$$
>  <Compound>
c1ccncc1 [pyridine] + CCCC[N+]1(C)CCCC1.N#CN=C=[N-]

>  <Qualitative Label>
1

$$$$
>  <Compound>
C=CCCCCC [1-heptene] + CCCC[N+]1(C)CCCC1.N#CN=C=[N-]

>  <Qualitative Label>
0

$$$$
>  <Compound>
C#CCCCC [1-hexyne] + CCCC[N+]1(C)CCCC1.N#CN=C=[N-]

>  <Qualitative Label>
1

$$$$
>  <Compound>
CCCC(C)=O [pentan-2-one] + CCCC[N+]1(C)CCCC1.N#CN=C=[N-]

>  <Qualitative Label>
1

$$$$
